pIC50: −log10 of the molar value.
Target or system CRBN-DDB1 (Homo sapiens); metric pIC50; compiled from varied reports.

Query (compound): CC1(c2ccc(NC(=O)OC3CN(c4cc(F)c(C5CCC(=O)NC5=O)c(F)c4)C3)cc2)CC1 (centres unmarked) ; field requested: pIC50
6.00 to 7.00

Request the reported pIC50 associated with NCc1cccc2c1C(=O)NC(=O)C2
4.52 to 5.00

Give the measured pIC50 of O=C1CCC(c2c(F)cc(N3CC(NC(=O)Cc4ccc5c(c4)OCC5)C3)cc2F)C(=O)N1 (centres unmarked) .
6.00 to 7.00

Fill blank: measured pIC50 of the compound O=C1CCC(N2Cc3ccc(CNC(=O)Nc4cccc(F)c4)cc3C2=O)C(=O)N1 (centres unmarked) is ____.
6.32

Item NCCCCCCCc1ccc(Oc2cccc3c2C(=O)NC(=O)C3)cc1 has what recorded pIC50?
> 5.00

// lookup pIC50 for Cc1c(Cl)cc(NC(=O)OC2CN(c3cc(F)c(C4CCC(=O)NC4=O)c(F)c3)C2)cc1CN1CCOCC1 (centres unmarked)
≥ 7.00

Query (compound): Cc1cc(NC(=O)OC2CN(c3cc(F)c(C4CCC(=O)NC4=O)c(F)c3)C2)ccc1F (centres unmarked) ; field requested: pIC50
≥ 7.00

Query: pIC50; subject: O=C1CCC(N2Cc3ccc(CNC(=O)Nc4cc(Cl)cc(CN5CCOCC5)c4)cc3C2=O)C(=O)N1 (centres unmarked)
6.39

----------
Assay read-out IC50 on CRBN-DDB1 (Homo sapiens); records merged from the literature.

Consider the compound O=C1CCC(c2c(F)cc(N3CC(OC(=O)Nc4cc(Cl)cc(OC(F)F)c4)C3)cc2F)C(=O)N1 (centres unmarked) and give its measured IC50.
100 to 1000 nM

Endpoint output: IC50 of O=C1CCC(N2Cc3ccc(CNC(=O)Nc4cc(C(F)(F)F)ns4)cc3C2=O)C(=O)N1 (centres unmarked) . Value?
1130 nM

Consider the compound shown here: O=C1CCC(N2Cc3ccc(CNC(=O)Nc4ccon4)cc3C2=O)C(=O)N1 (centres unmarked) What is its recorded IC50?
408 nM

Suppose we examine the compound C[C@@H](NC(=O)OC1CN(c2cc(F)c(C3CCC(=O)NC3=O)c(F)c2)C1)c1ccccc1 (some centres unmarked) ; what IC50 value has been reported?
≤ 100 nM

Need IC50 of Cc1cc(C)nc(CC(=O)NC2CN(c3cc(F)c(C4CCC(=O)NC4=O)c(F)c3)C2)c1 (centres unmarked) , thanks.
100 to 1000 nM

Which measured IC50 value corresponds to O=C1CCC(c2c(F)cc(N3CC(OC(=O)NC4CCCCC4)C3)cc2F)C(=O)N1 (centres unmarked) ?
100 to 1000 nM

// IC50 lookup, key: Cc1cc(NC(=O)OC2CN(c3cc(F)c(C4CCC(=O)NC4=O)c(F)c3)C2)c(F)cc1Cl (centres unmarked)
100 to 1000 nM

Value lookup for IC50; key = O=C1CCC(N2Cc3ccc(CNC(=O)Nc4ccc5c(c4)OCO5)cc3C2=O)C(=O)N1 (centres unmarked)
1840 nM

----------
Note to self: these molecules have pIC50 reported for CRBN-DDB1 (Homo sapiens, UniProt Q96SW2) in various publications.
pIC50: −log10 of the molar value.

Fill in: pIC50 of C[C@@H](NC(=O)NCc1ccc2c(c1)C(=O)N(C1CCC(=O)NC1=O)C2)c1ccccc1 (some centres unmarked) is ___
6.33

Query (molecule): O=C1CCC(c2c(F)cc(N3CC(OC(=O)NCC4CCC4)C3)cc2F)C(=O)N1 (centres unmarked) ; field requested: pIC50
6.00 to 7.00

// lookup pIC50 for O=C1Cc2cccc(Oc3ccccc3Br)c2C(=O)N1
> 5.00

I'd like to know its pIC50. The molecule in question is O=C1CCC(c2c(F)cc(N3CC(OC(=O)Nc4cc(OC(F)(F)F)ccc4F)C3)cc2F)C(=O)N1 (centres unmarked)
6.00 to 7.00

// lookup pIC50 for O=C1CCC(c2c(F)cc(N3CC(OC(=O)N[C@@H]4CCCOC4)C3)cc2F)C(=O)N1 (some centres unmarked)
6.00 to 7.00

What value of measured pIC50 is listed for COCCOc1cc(NC(=O)NCc2ccc3c(c2)C(=O)N(C2CCC(=O)NC2=O)C3)cc(Cl)c1C (centres unmarked) ?
6.22

Item under review: O=C1CCC(c2c(F)cc(N3CC(OC(=O)NC45CC(C4)C5)C3)cc2F)C(=O)N1 (centres unmarked) . Reported pIC50?
6.00 to 7.00

Which value of pIC50 has been reported for COc1c(N2CC(OC(=O)Nc3ccc(C)c(Cl)c3)C2)ccc(C2CCC(=O)NC2=O)c1Cl (centres unmarked) in the records?
< 6.00
